Cited source for all entries: the supplement of paper PMC6555819

- Tested on: RARa:RXR (NR concentration 270 nM, RXRa partner concentration 90 nM)
- test-protocol: PBM binding z-score (relative to random genomic background probes); higher = stronger binding; sequences stand for … in GC…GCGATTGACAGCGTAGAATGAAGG
endpoint-label: PBM binding z-score
Numbers only.

# example entries with known answers
# biosequence, PBM binding z-score
measured = [
    ("TCTTGTTGATCAATAGAGGTTAAGAAAGTGCGCT", 1.71),
    ("ATCTCTAGGTAACCAAATTCAGTGAATGCCGAAC", 0.166),
    ("CCTAATTGGTCAAGGTCACACACGCTATAGGTAC", 4.28),
    ("ATCGAAAGGTCGAAGGTGAGTAGACCCACCCGAA", 4.23),
    ("ATACCAAGATGATCGTGAGGTCGTTGATACTAAC", 1.35),
]

Report PBM binding z-score for each item below.
1. TATACAGGGTGAAAGGCCAGAGTACGAATGTCGA
2. ACTAGCAGGCCAAGGGTCACTCGAGATTAGTCCG
3. CATACAGGGTCAGCTGGGCCAGAGTAGGGACGGC
4. CGTCCAAGGTCAATGCTAGGTCAGGGAAAGCATT
5. TAGCCTAGGTCATGGGGCCAGTATAGTACGCATC
6. GCTTGTAGATCACGGTTAAGAAAGACTAAGCTAA

1: 1.31; 2: 3.97; 3: 2.81; 4: 5.55; 5: 3.54; 6: -0.247

Consider the sequence shown here: CATACAGGGTCAGCTCGGCCAGAGTAGGGACGGC What is its recorded PBM binding z-score?
2.97
